Where do the numbers come from? From ChEMBL document CHEMBL5154787.

# assay_info: Protein binding in rat plasma assessed as unbound fraction measured after 3 hrs by LC/MS/MS analysis
# Assay type: ADME, cell-free
value_type: fraction unbound at 3 h

record_smiles: COC(=O)Nc1cc(-c2ccc(OC[C@@](C)(N)CC(C)C)c(C)n2)ccn1
result_number: 0.225

record_smiles: CC(C)C[C@](C)(N)COc1cnc(-c2ccnc(C(F)F)c2)cc1C(F)F
result_number: 0.122

record_smiles: COC(=O)Nc1cc(-c2cnc(OC[C@@](C)(N)CC(C)C)c(C)c2)ccn1
result_number: 0.105

====

# assay_info: Oral bioavailability in rat at 3 mg/kg or 2 mg/kg,iv
# Type: ADME, organism-based
# conditions_used: in vivo
Reported bioavailability values follow for various compounds

record_smiles: COC(=O)Nc1cc(-c2ccc(OC[C@@](C)(N)CC(C)C)c(C)n2)ccn1
bioavailability, %: 94

record_smiles: CC(C)C[C@](C)(N)COc1cnc(-c2ccnc(C(F)F)c2)cc1C(F)F
bioavailability, %: 22

record_smiles: COC(=O)Nc1cc(-c2cnc(OC[C@@](C)(N)CC(C)C)c(C)c2)ccn1
bioavailability, %: 77

====

# assay_info: Protein binding in human plasma assessed as unbound fraction measured after 3 hrs by LC/MS/MS analysis
# Assay type: ADME, cell-free

record_smiles: CC(C)C[C@](C)(N)COc1cnc(-c2ccnc(C(F)F)c2)cc1C(F)F
fraction unbound at 3 h: 0.125
--
record_smiles: COC(=O)Nc1cc(-c2ccc(OC[C@@](C)(N)CC(C)C)c(C)n2)ccn1
fraction unbound at 3 h: 0.18
--
record_smiles: COC(=O)Nc1cc(-c2cnc(OC[C@@](C)(N)CC(C)C)c(C)c2)ccn1
fraction unbound at 3 h: 0.115

====

# study_target: Voltage-gated inwardly rectifying potassium channel KCNH2 (Homo sapiens, UniProt Q12809)
# Sequence (Q12809 whole entry): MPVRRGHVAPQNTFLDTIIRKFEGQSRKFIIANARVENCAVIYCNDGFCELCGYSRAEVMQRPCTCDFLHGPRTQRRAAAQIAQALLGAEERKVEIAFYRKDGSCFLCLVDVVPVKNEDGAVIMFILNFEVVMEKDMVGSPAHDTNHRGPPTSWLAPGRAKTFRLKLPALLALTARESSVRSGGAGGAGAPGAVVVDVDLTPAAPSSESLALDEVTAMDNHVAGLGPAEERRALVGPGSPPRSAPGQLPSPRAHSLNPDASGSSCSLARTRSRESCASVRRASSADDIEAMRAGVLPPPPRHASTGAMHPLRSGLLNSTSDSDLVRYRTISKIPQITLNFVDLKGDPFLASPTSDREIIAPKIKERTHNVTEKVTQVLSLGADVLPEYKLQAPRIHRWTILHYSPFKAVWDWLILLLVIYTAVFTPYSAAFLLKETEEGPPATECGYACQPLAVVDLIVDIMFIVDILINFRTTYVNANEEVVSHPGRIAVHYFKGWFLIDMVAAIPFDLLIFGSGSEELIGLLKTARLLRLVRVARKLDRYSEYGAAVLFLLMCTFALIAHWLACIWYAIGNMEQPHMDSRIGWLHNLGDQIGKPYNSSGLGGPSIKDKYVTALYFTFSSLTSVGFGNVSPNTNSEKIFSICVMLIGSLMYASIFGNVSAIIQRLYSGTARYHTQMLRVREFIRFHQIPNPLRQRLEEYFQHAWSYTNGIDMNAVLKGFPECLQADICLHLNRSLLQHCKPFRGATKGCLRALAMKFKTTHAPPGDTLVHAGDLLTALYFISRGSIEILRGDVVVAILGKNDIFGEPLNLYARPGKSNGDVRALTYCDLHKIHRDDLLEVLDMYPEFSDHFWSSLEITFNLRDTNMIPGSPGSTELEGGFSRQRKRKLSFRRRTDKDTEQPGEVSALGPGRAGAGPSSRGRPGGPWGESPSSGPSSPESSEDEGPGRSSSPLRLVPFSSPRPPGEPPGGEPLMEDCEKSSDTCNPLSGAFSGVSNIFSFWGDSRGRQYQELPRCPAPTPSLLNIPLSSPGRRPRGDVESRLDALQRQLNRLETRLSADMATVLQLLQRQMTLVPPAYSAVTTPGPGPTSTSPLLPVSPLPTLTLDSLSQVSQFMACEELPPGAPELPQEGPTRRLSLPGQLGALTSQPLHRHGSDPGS
# assay_info: Inhibition of human ERG by patch clamp assay
value_type: IC50

record_smiles: CC(C)C[C@](C)(N)COc1cnc(-c2ccnc(C(F)F)c2)cc1C(F)F
study_target: Voltage-gated inwardly rectifying potassium channel KCNH2 (Homo sapiens, UniProt Q12809)
value_type: IC50
result: 1.3 µM
--
record_smiles: COC(=O)Nc1cc(-c2ccc(OC[C@@](C)(N)CC(C)C)c(C)n2)ccn1
study_target: Voltage-gated inwardly rectifying potassium channel KCNH2 (Homo sapiens, UniProt Q12809)
value_type: IC50
result: 5.9 µM

====

# study_target: Cytochrome P450 3A4 (Homo sapiens)
# Sequence (P08684 whole entry): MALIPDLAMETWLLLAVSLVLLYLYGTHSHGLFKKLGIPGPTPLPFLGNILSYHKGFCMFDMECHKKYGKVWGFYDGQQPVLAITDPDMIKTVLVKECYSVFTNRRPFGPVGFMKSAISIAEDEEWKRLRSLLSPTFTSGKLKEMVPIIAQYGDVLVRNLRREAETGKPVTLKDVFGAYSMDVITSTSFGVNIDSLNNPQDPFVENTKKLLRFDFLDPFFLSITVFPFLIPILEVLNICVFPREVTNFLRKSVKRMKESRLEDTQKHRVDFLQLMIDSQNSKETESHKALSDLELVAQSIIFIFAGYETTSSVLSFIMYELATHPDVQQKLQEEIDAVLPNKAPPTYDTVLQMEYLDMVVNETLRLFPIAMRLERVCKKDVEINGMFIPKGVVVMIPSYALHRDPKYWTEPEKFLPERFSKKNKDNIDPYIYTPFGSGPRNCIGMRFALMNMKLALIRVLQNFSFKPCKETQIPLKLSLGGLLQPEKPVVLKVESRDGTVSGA
# assay_info: Time dependent inhibition of […] (unknown origin) using MDZ as substrate incubated for up to 30 mins in presence of NADPH by LC-MS/MS analysis
# Type: ADME
pIC50: −log10 of the molar value.
Overview of recorded pIC50 for various compounds

record_smiles: COC(=O)Nc1cc(-c2cnc(OC[C@@](C)(N)CC(C)C)c(C)c2)ccn1
pIC50: < 4.40

record_smiles: CC(C)C[C@](C)(N)COc1cnc(-c2ccnc(C(F)F)c2)cc1C(F)F
pIC50: < 4.40

====

# study_target: UniProtKB P08684
# assay_info: Inhibition of CYP3A4 (unknown origin) incubated for 10 mins in presence of NADPH by LC-MS/MS analysis
# Assay type: ADME
pIC50: −log10 of the molar value.

compound: COC(=O)Nc1cc(-c2ccc(OC[C@@](C)(N)CC(C)C)c(C)c2)ccn1 (racemic)
pIC50: < 4.70
//
compound: CC(C)C[C@](C)(N)COc1cnc(-c2ccnc(C(F)F)c2)cc1C(F)F
pIC50: < 4.70
//
compound: CC(=O)Nc1cc(-c2ccc(OC[C@@](C)(N)CC(C)C)c(OC(F)(F)F)c2)ccn1
pIC50: 5.02
//
compound: Cc1cc(-c2ccnc(C(F)F)c2)ncc1OC[C@@](C)(N)CC(C)C
pIC50: < 4.70
//
compound: COC(=O)Nc1cc(-c2cc(C(F)(F)F)c(OC[C@@](C)(N)CC(C)C)cn2)ccn1
pIC50: 5.28
//
compound: COC(=O)Nc1cc(-c2ccc(OC[C@@](C)(N)CC(C)C)c(C)n2)ccn1
pIC50: < 4.70
//
compound: COC(=O)Nc1cc(-c2cnc(OC[C@@](C)(N)CC(C)C)c(Cl)c2)ccn1
pIC50: < 4.70
//
compound: COC(=O)Nc1cc(-c2cc(OC)c(OC[C@@](C)(N)CC(C)C)cn2)ccn1
pIC50: < 4.70
//
compound: CC(=O)Nc1cc(-c2ccc(OC[C@@H](N)CC(C)C)c(C(F)(F)F)c2)ccn1
pIC50: 6.48

====

# assay_info: Solubility of compound in FaSSIF incubated for 24 hrs
# Format: physicochemical

record_smiles: COC(=O)Nc1cc(-c2ccc(OC[C@@](C)(N)CC(C)C)c(C)n2)ccn1
solubility at 24 h: > 1000 µg/mL

====

# assay_info: Brain concentration in CCI induced thermal hyperalgesia in Sprague-Dawley rat at 1 mg/kg, po measured at 5.5 hrs post dose
# Type: ADME, organism-based
# conditions_used: read-out: Ct
value_type: concentration at 5.5 h

record_smiles: CC(=O)Nc1cc(-c2ccc(OC[C@@H](N)CC(C)C)c(F)c2)ccn1
value_type: concentration at 5.5 h
result: 320 nM

====

# assay_info: Protein binding in dog plasma assessed as unbound fraction measured after 3 hrs by LC/MS/MS analysis
# Type: ADME, cell-free, Canis lupus familiaris
value_type: fraction unbound at 3 h

record_smiles: CC(C)C[C@](C)(N)COc1cnc(-c2ccnc(C(F)F)c2)cc1C(F)F
result_number: 0.08

====

Heads up, these compounds all have pIC50 values measured for MAP kinase-interacting serine/threonine-protein kinase 1 (Homo sapiens).
pIC50: −log10 of the molar value.

record_smiles: Cc1cc(-c2cc(C(F)F)c(OC[C@@](C)(N)CC(C)C)cn2)ccn1
pIC50: 6.60

record_smiles: COC(=O)Nc1cc(-c2ccc(OC[C@@](C)(N)CC(C)C)c(Cl)n2)ccn1
pIC50: 6.92

record_smiles: COC(=O)Nc1cc(-c2cc(C)c(OC[C@@](C)(N)CC(C)C)cn2)ccn1
pIC50: 5.89

====

Catalogue of molecules with associated IC50
# study_target: UniProtKB Q2M2I8
# assay_info: Inhibition of bacterially expressed GST-Xa-tagged human AAK1 using 5-FAM-labelled Aha-KEEQSQITSQVTGQIGWR-NH2 peptide as substrate incubated for 3 hrs in presence of ATP by electrophoretic analysis

molecule: Cc1cc(-c2cc(C)c(OC[C@@](C)(N)CC(C)C)cn2)ccn1
study_target: UniProtKB Q2M2I8
unit_of_measure: nM
IC50: 19
--
molecule: COC(=O)Nc1cc(-c2cnc(OC[C@@](C)(N)CC(C)C)c(OC)c2)ccn1 (racemic)
study_target: UniProtKB Q2M2I8
unit_of_measure: nM
IC50: 3.8
--
molecule: COC(=O)Nc1cc(-c2ccc(OC[C@@](C)(N)CC(C)C)cn2)ccn1 (racemic)
study_target: UniProtKB Q2M2I8
unit_of_measure: nM
IC50: 23
--
molecule: COC(=O)Nc1cc(-c2cc(C(F)(F)F)c(OC[C@@](C)(N)CC(C)C)cn2)ccn1
study_target: UniProtKB Q2M2I8
unit_of_measure: nM
IC50: 0.4
--
molecule: COC(=O)Nc1cc(-c2cnc(OC[C@@](C)(N)CC(C)C)c(Cl)c2)ccn1
study_target: UniProtKB Q2M2I8
unit_of_measure: nM
IC50: 0.4

====

Consider the following compounds and their measured pIC50 readings.
# study_target: AP2-associated protein kinase 1 (Homo sapiens)
# Sequence (Q2M2I8 whole entry): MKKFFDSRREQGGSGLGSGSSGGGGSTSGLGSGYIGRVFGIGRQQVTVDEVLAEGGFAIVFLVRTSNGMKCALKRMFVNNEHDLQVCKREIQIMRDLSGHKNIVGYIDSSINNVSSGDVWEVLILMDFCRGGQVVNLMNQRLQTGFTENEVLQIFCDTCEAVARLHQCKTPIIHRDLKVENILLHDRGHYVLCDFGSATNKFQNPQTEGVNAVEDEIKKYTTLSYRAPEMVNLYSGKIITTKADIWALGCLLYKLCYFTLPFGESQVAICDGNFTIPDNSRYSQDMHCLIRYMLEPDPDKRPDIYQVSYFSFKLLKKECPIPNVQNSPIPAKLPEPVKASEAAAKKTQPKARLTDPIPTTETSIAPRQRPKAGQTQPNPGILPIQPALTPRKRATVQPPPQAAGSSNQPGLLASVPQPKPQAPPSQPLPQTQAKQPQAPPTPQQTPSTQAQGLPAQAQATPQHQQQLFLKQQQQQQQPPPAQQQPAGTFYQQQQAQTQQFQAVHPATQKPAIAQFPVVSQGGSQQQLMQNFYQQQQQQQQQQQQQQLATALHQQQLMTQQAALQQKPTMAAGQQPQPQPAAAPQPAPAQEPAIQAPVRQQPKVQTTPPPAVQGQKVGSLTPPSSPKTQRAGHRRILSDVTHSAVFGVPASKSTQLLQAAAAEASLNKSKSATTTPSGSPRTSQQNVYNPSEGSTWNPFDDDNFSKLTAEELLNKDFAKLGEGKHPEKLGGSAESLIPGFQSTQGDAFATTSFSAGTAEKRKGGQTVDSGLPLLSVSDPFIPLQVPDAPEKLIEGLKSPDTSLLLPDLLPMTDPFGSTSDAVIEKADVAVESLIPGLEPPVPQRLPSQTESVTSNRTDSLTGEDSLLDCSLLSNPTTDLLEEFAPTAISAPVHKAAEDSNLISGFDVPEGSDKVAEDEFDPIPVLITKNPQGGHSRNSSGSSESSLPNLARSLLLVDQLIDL
# assay_info: Inhibition of bacterially expressed GST-Xa-tagged human AAK1 using 5-FAM-labelled Aha-KEEQSQITSQVTGQIGWR-NH2 peptide as substrate incubated for 3 hrs in presence of ATP by electrophoretic analysis
pIC50: −log10 of the molar value.

compound: Cc1cc(-c2cc(C(F)F)c(OC[C@@](C)(N)CC(C)C)cn2)ccn1
study_target: AP2-associated protein kinase 1 (Homo sapiens)
pIC50: 9.30
--
compound: CC(=O)Nc1cc(-c2cc(F)c(OC[C@@H](N)CC(C)C)cc2F)ccn1
study_target: AP2-associated protein kinase 1 (Homo sapiens)
pIC50: 8.89
--
compound: COC(=O)Nc1cc(-c2ccc(OC[C@@](C)(N)CC(C)C)c(C3CC3)c2)ccn1
study_target: AP2-associated protein kinase 1 (Homo sapiens)
pIC50: 9.40
--
compound: COC(=O)Nc1cc(-c2cc(OC)c(OC[C@@](C)(N)CC(C)C)cn2)ccn1
study_target: AP2-associated protein kinase 1 (Homo sapiens)
pIC50: 8.46
--
compound: CC(=O)Nc1cc(-c2ccc(OC[C@@H](N)CC(C)C)c(C(F)(F)F)c2)ccn1
study_target: AP2-associated protein kinase 1 (Homo sapiens)
pIC50: 9.40
--
compound: COC(=O)Nc1cc(-c2ccc(OC[C@@](C)(N)CC(C)C)c(C(F)F)n2)ccn1
study_target: AP2-associated protein kinase 1 (Homo sapiens)
pIC50: 9.10
--
compound: COC(=O)Nc1cc(-c2cc(C(F)F)c(OC[C@@](C)(N)CC(C)C)cn2)ccn1
study_target: AP2-associated protein kinase 1 (Homo sapiens)
pIC50: 9.40
--
compound: CC(C)C[C@H](N)COc1ccc(-c2ccnc(NCc3ccccc3)c2)cc1
study_target: AP2-associated protein kinase 1 (Homo sapiens)
pIC50: 6.90
--
compound: CC(C)C[C@H](N)COc1ccc(-c2ccnc(N)c2)cc1
study_target: AP2-associated protein kinase 1 (Homo sapiens)
pIC50: 7.68
--
compound: CC(=O)Nc1cc(-c2ccc(OC[C@@](C)(N)CC(C)C)c(F)c2)ccn1
study_target: AP2-associated protein kinase 1 (Homo sapiens)
pIC50: 9.10
--
compound: COC(=O)Nc1cc(-c2ccc(OC[C@@](C)(N)CC(C)C)c(Cl)c2)ccn1 (racemic)
study_target: AP2-associated protein kinase 1 (Homo sapiens)
pIC50: 9.30
--
compound: CC(=O)Nc1cc(-c2ccc(OC[C@@](C)(N)CC(C)C)c(C#N)c2)ccn1
study_target: AP2-associated protein kinase 1 (Homo sapiens)
pIC50: 9.22
--
compound: COC(=O)Nc1cc(-c2ccc(OC[C@@](C)(N)CC(C)C)c(OC(F)(F)F)c2)ccn1
study_target: AP2-associated protein kinase 1 (Homo sapiens)
pIC50: 9.22
--
compound: COC(=O)Nc1cc(-c2cnc(OC[C@@](C)(N)CC(C)C)c(C#N)c2)ccn1
study_target: AP2-associated protein kinase 1 (Homo sapiens)
pIC50: 9.00
--
compound: COC(=O)Nc1cc(-c2ccc(OC[C@@H](N)CC(C)C)c(-c3ccno3)c2)ccn1
study_target: AP2-associated protein kinase 1 (Homo sapiens)
pIC50: 9.10
--
compound: COC(=O)Nc1cc(-c2ccc(OC[C@@](C)(N)CC(C)C)nc2)ccn1
study_target: AP2-associated protein kinase 1 (Homo sapiens)
pIC50: 7.55
--
compound: COC(=O)Nc1cc(-c2ccc(OC[C@@](C)(N)CC(C)C)c(C#N)c2)ccn1
study_target: AP2-associated protein kinase 1 (Homo sapiens)
pIC50: 9.30
--
compound: Cc1cc(-c2ccnc(C(F)F)c2)ncc1OC[C@@](C)(N)CC(C)C
study_target: AP2-associated protein kinase 1 (Homo sapiens)
pIC50: 8.85
--
compound: Cc1cc(-c2cc(C(F)(F)F)c(OC[C@@](C)(N)CC(C)C)cn2)ccn1
study_target: AP2-associated protein kinase 1 (Homo sapiens)
pIC50: 8.92
--
compound: CC(=O)Nc1cc(-c2ccc(OC[C@@H](N)CC(C)C)c(Cl)c2)ccn1
study_target: AP2-associated protein kinase 1 (Homo sapiens)
pIC50: 9.30
